# assay.overview: Lipophilicity, log k of the compound by HPLC analysis
# Type: physicochemical
Sorting guide: entries reporting log K beneath 0.6 go in the Criterion met pile, the rest go in the Criterion not met pile.

CC(C)[C@H](NC(=O)OCC(F)(F)F)C(=O)N[C@H](C)c1nc2ccc(F)cc2s1    Criterion met
CC(C)OC(=O)N[C@H](C(=O)N[C@H](C)c1nc2ccc(F)cc2s1)C(C)C    Criterion met
COC(=O)N[C@H](C(=O)N[C@H](C)c1nc2ccc(F)cc2s1)C(C)C    Criterion met
CCC[C@H](NC(=O)OC)C(=O)N[C@H](C)c1nc2ccc(F)cc2s1    Criterion met
CC(C)[C@H](NC(=O)OCC(Cl)(Cl)Cl)C(=O)N[C@H](C)c1nc2ccc(F)cc2s1    Criterion not met
CCC[C@H](NC(=O)OC(C)C)C(=O)N[C@H](C)c1nc2ccc(F)cc2s1    Criterion met
CC(C)[C@H](NC(=O)OCCCl)C(=O)N[C@H](C)c1nc2ccc(F)cc2s1    Criterion met
CCC[C@H](NC(=O)OCC(C)C)C(=O)N[C@H](C)c1nc2ccc(F)cc2s1    Criterion not met
CCOC(=O)N[C@H](C(=O)N[C@H](C)c1nc2ccc(F)cc2s1)C(C)C    Criterion met
